Target: Muscarinic acetylcholine receptor M4 (Rattus norvegicus)
Assay: rat M4 positive allosteric modulator potency, SAR follow-up, cell-based, analogs, calcium mobilization, Gqi5 (AID 1923)
Details: CHO-K1 rM4/Gqi5, calcium mobilization Fluo-4, ACh EC20
Activity calls are given as the source filed them.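 How the source made its calls: active means compound that boosted calcium signal to a low acetylcholine dose in a dose-dependent way; inactive means the rest.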
Possible outcomes: TRUE = active, FALSE = inactive

| SMILES_REPR | CLASS |
| --- | --- |
| Cc1cc(OCCN2CCOCC2)nc2sc(C(=O)Nc3ccccc3)c(N)c12 | TRUE |
| CCCOc1cc(C)c2c(N)c(C(=O)NCc3ccc(OC)cc3)sc2n1 | FALSE |
| Cc1cc(OCCCN(C)C)nc2sc(C(=O)NCc3cc(F)ccc3F)c(N)c12 | TRUE |
| COc1ccc(CNC(=O)c2sc3nc(OCc4ccncc4)cc(C)c3c2N)cc1 | TRUE |
| Cc1cc(OCCN2CCOCC2)nc2sc(C(=O)NC(C)C)c(N)c12 | TRUE |
| Cc1cc(OCCN2CCOCC2)nc2sc(C(=O)NC(C)(C)C)c(N)c12 | TRUE |
| Cc1cc(OCCN2CCOCC2)nc2sc(C(=O)NC3COC3)c(N)c12 | TRUE |
| Cc1cc(OCc2ccncc2)nc2sc(C(=O)NCc3cc(F)ccc3F)c(N)c12 | TRUE |
| COc1ccc(CNC(=O)c2sc3nc(OCCN4CCCC4)cc(C)c3c2N)cc1 | TRUE |
| Cc1cc(OCc2ccccn2)nc2sc(C(=O)NCc3cccc(F)c3F)c(N)c12 | TRUE |
| Cc1cc(OCCCN(C)C)nc2sc(C(=O)NC3COC3)c(N)c12 | TRUE |

Data provenance is PubChem BioAssay AID1923.
